target: TbINO1 (Trypanosoma brucei brucei, UniProt Q5QQ46); experiment: biochemical; format: binding; conditions: read-out: Tb Ino1 Tm Shift [˚C]
Sequence (Q5QQ46 whole entry): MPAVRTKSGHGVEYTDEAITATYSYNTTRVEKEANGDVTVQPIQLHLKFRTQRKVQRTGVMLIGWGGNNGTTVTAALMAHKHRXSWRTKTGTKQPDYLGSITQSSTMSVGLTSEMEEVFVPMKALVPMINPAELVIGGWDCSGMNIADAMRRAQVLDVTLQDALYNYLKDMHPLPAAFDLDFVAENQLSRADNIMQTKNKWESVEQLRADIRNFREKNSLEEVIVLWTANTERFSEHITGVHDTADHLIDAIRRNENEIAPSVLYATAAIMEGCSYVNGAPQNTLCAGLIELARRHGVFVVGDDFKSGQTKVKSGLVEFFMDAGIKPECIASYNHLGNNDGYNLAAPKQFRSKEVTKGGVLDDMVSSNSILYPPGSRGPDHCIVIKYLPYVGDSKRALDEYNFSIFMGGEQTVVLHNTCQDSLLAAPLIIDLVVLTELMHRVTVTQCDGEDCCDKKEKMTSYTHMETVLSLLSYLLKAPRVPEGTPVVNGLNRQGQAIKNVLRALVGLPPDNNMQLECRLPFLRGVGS
Measurement Kind: ΔTm at 1000 µM (°C)
Lab book: enter the figure in °C, no units written.

Study these solved cases before continuing.
[
  {
    "Molecule": "Cc1cc(C(N)=S)no1 [compound 140, 5‐methylisoxazole‐3‐carbothioamide]",
    "Unit": "°C",
    "ΔTm at 1000 µM": 0.2
  },
  {
    "Molecule": "Cc1cc(N)[nH]n1 [compound 6, 3‐methyl‐1H‐pyrazol‐5‐amine]",
    "Unit": "°C",
    "ΔTm at 1000 µM": 0.2
  },
  {
    "Molecule": "OCc1ccc2nccn2c1 [compound 171, imidazo[1,2‐a]pyridin‐6‐ylmethanol]",
    "Unit": "°C",
    "ΔTm at 1000 µM": 0.84
  },
  {
    "Molecule": "CCOC(=O)c1csc(C)n1 [compound 356]",
    "Unit": "°C",
    "ΔTm at 1000 µM": 0.28
  },
  {
    "Molecule": "CC1OCCC1=O (stereo not drawn) [compound 11, 2‐methyltetrahydrofuran‐3‐one]",
    "Unit": "°C",
    "ΔTm at 1000 µM": 0.77
  }
]

# evaluate next
Quick check: ΔTm at 1000 µM of Clc1ccc2nonc2c1 [compound 225, 5‐chloro‐2,1,3‐benzoxadiazole] ?
0.81
